Each recorded value in this set is attributed to patent US20140323392A1.

target: HIV-1 HXB2 envelope glycoprotein gp41 (N-trimer of the prehairpin intermediate) (HIV-1 strain HXB2, UniProt P04578 512-856); assay: cell-based or functional assay
Bridges are numbered along the chain shown (N, C = ends). [ ]: non-standard residue; d: D form.
We'd kindly ask you to apply these IC50, HXB2 pseudovirion entry classes: low end (below 0.8 nM), middle (0.8 nM to below 10 nM), high end (10 nM or more)

Field: example entries. Status: answers known.
Ac-G[dA][dC][dD][dY][dP][dE][dW][dQ][dW][dL][dC][dA][dA]G[dK]-NH2 (disulfide 3-12 (inferred)) [PIE7-GK] ... high end
Ac-[dK]G[dA][dC][dD][dY][dK][dE][dW][dQ][dW][dL][dC][dA][dA]-NH2 (disulfide 4-13 (inferred)) [PIE8] ... middle

**Q:** Kindly identify the class of Ac-[dK]G[dA][dC][dD][dY][dP][dE][dW][dQ][dW][dL][dC][dA][dA]-NH2 (disulfide 4-13 (inferred); also: dimer, N- to N-terminal link by PEG5 spacer) [N5N(PIE7)2] .
**A:** middle

**Q:** Band for Ac-[dK]G[dA][dC][dD][dY][dP][dE][dW][dR][dW][dL][dC][dA][dA][dA]-NH2 (disulfide 4-13 (inferred)) [PIE2-AAA] ?
**A:** middle

**Q:** Class label required: Ac-[dK][dK]G[dA][dC][dE][dL][dL]G[dW][dE][dW][dA][dW][dL][dC][dA][dA]-NH2 (disulfide 5-16 (inferred)) [D10-p5]
**A:** middle
